biological target: T1, VLP2 (virus-like particles of AAV2) (AAV2, UniProt P03135 1-735; P03135 1-598; P03135 1-533); assay: ELISA on VLP2; A450 after 50.3°C 15 min / untreated
T1 construct: Empty AAV2 capsid; background says about 60 protein molecules, VP1:VP2:VP3 = 1:1:10; Immobilised on the ELISA plate
T1 sequence (P03135 whole entry, chain 1 of 3): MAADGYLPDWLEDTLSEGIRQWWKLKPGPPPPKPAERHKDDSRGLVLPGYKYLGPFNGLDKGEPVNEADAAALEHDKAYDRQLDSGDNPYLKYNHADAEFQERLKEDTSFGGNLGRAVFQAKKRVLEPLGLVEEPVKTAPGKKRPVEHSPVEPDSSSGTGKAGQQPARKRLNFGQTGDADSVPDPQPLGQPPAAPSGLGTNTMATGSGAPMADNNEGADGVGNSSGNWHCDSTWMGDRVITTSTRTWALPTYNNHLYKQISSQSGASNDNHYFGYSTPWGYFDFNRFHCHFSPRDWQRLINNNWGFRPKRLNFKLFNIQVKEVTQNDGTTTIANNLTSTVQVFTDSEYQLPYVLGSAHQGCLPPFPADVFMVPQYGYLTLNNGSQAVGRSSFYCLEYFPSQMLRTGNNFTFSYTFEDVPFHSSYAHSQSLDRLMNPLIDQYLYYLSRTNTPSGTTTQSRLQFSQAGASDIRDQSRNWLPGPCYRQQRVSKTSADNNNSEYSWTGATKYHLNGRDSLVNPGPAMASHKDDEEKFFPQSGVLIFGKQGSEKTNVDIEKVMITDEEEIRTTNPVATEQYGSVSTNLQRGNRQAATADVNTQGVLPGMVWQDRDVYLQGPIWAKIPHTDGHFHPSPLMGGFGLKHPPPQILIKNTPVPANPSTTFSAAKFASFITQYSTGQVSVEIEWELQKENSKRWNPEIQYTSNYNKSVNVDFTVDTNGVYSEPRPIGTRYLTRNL
T1 sequence (P03135 139-735, tags left off, chain 2 of 3): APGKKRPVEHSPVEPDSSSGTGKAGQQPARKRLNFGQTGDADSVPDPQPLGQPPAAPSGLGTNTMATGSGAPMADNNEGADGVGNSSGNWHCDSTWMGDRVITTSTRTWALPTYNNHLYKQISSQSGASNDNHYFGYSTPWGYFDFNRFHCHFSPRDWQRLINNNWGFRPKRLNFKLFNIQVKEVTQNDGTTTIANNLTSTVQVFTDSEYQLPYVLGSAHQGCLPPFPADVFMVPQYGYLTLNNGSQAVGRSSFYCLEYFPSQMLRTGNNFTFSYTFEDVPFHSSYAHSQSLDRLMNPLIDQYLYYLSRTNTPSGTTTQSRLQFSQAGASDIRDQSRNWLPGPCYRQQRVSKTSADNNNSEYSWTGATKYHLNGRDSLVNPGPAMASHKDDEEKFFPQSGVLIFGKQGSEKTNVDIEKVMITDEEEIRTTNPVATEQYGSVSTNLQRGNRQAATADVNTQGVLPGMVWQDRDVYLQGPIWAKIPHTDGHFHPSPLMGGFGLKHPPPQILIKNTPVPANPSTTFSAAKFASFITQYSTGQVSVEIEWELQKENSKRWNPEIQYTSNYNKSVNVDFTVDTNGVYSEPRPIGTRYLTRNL
T1 sequence (P03135 203-735, chain 3 of 3): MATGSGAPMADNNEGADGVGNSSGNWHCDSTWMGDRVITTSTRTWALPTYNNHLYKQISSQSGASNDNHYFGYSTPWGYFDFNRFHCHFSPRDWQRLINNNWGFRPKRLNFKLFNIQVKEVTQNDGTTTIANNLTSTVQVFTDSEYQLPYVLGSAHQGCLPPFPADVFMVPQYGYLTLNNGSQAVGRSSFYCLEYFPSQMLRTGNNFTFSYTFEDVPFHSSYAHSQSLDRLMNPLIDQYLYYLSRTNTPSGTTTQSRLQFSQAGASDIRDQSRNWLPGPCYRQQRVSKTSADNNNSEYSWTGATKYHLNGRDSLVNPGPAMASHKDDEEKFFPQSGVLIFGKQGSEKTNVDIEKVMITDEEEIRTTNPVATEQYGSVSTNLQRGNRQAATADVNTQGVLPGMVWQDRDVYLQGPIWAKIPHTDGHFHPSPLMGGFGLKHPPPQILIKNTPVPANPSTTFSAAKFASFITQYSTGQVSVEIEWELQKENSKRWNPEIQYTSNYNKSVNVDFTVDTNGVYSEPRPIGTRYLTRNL
Measurement name: Residual activity [%] (%)
Numbers only, in %.

Consider the worked cases shown below.
Binder	Measured
AAV-binding protein No. 45 (Asn329Asp, Tyr342His, Tyr355Cys) (receptor) MGSAGESVQITLPKNEVQLDAYVLQEPPKGETHTYDWQLITHPRDCSGEMEGKHSQILKLSKLTPGLYEFKVIVEGQNAHGEGYVNVTVKPEPRKNRPPIAIVSPQFQEISLPTTSTVIDGSQSTDDDKIVQYHWEELKGPLREEKISEDTAILKLSKLVPGNYTFSLTVVDSDGATNSTTANLTVNKAVDHHHHHH	66
AAV-binding protein No. 16 (Leu369Gln) (receptor) MGSAGESVQITLPKNEVQLNAYVLQEPPKGETYTYDWQLITHPRDYSGEMEGKHSQILKQSKLTPGLYEFKVIVEGQNAHGEGYVNVTVKPEPRKNRPPIAIVSPQFQEISLPTTSTVIDGSQSTDDDKIVQYHWEELKGPLREEKISEDTAILKLSKLVPGNYTFSLTVVDSDGATNSTTANLTVNKAVDHHHHHH	32

Could you now consider this next binder?
Prompt line: I would be grateful if you could share the reported Residual activity [%] for AAV-binding protein No. 36 (Tyr355His, Asn387Ser) (receptor) MGSAGESVQITLPKNEVQLNAYVLQEPPKGETYTYDWQLITHPRDHSGEMEGKHSQILKLSKLTPGLYEFKVIVEGQSAHGEGYVNVTVKPEPRKNRPPIAIVSPQFQEISLPTTSTVIDGSQSTDDDKIVQYHWEELKGPLREEKISEDTAILKLSKLVPGNYTFSLTVVDSDGATNSTTANLTVNKAVDHHHHHH .
Response line: 74.5
